Target: T1, EsCas13d, nuclease-dead (Eubacterium siraeum, UniProt B0MS50, R295A;H300A;R849A;H854A)
T1 sequence: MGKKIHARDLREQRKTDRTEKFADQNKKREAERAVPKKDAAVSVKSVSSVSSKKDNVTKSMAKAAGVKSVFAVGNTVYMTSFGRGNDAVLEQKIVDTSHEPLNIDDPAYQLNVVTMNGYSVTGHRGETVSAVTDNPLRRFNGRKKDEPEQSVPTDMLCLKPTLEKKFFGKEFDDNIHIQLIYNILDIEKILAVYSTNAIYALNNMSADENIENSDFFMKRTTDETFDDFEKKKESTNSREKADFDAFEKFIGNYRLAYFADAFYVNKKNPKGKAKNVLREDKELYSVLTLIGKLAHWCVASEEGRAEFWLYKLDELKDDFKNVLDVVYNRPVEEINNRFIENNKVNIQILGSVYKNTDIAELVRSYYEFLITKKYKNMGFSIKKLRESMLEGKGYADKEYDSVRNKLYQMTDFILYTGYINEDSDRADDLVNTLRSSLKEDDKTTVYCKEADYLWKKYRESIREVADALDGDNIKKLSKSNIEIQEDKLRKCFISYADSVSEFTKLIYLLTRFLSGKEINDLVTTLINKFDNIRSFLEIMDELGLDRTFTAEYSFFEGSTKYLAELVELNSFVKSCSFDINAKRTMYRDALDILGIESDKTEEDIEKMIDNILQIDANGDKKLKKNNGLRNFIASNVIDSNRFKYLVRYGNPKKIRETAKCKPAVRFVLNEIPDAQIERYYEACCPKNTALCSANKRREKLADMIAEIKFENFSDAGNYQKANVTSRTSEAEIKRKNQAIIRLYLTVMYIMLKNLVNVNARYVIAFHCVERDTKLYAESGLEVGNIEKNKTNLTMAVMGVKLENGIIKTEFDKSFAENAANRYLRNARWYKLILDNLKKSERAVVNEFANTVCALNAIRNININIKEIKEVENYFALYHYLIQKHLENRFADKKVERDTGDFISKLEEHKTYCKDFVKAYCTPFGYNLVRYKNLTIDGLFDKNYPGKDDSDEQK
Assay: crRNA (strand 1, pre-loaded); Mg2+; 40 mM Tris-HCl pH 7.5, 150 mM NaCl, 6 mM MgCl2, 1 mM DTT, 0.1% Tween-20, 0.2 mg/ml BSA; 25 C; 10 min per concentration, then washed
Conditions: tags: His6-TwinStrep-SUMO cleaved; N-terminal SNAP kept (SNAP-Surface 488); label: 3' end held by stalled T7 RNA polymerase
Readout label: pKd
Expect pKd as a plain number equal to -log10 of the molar concentration.

| Binder | Reported value |
| --- | --- |
| target 2 MT 5'PFS GAG 3'PFS AAA (mixed) RNA 1: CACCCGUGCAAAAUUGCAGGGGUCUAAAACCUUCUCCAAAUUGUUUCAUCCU RNA 2: GGGAAUGGAUCCACAUCUACGAAUUCGAGAGGAUGAAACAAUUUGGAGAAGAAAAGAUCGGAAGAGCACACGU | 8.39 |
| target 3 U2G,A11C (mixed) RNA 1: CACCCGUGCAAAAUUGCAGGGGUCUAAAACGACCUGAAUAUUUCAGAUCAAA RNA 2: GGGAAUGGAUCCACAUCUACGAAUUCGUUUUUGAUCUGAACUAUUCAGGGCUGCAGAUCGGAAGAGCACACGU | 7.20 |
| target 1 insG 3' of 19,insA 3' of 19 (mixed) RNA 1: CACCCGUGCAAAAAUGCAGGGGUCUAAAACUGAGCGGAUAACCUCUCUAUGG RNA 2: GGGAAUGGAUCCACAUCUACGAAUUCGUACCAUGAAGAGAGGUUAUCCGCUCACCGAGAUCGGAAGAGCACACGU | 7.30 |

Query binder follows.
Return reported pKd. Input binder: target 1 insC 3' of 13,insG 3' of 2 (mixed) RNA 1: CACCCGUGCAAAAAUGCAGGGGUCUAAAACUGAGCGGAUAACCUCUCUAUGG RNA 2: GGGAAUGGAUCCACAUCUACGAAUUCGUACCAUAGAGAGCGUUAUCCGCUCGACCGAGAUCGGAAGAGCACACGU
7.94
